Assay: Ataluren glucuronidation kinetics, human intestinal microsomes
Format: in vitro ADME
Settings: human, pooled human intestinal microsomes, pH 7.5, HIM, 0% BSA; read-out: CLint,u,UGT
Description: Ataluren at 0.5, 2.5, 12.5, 25, 50, 100, 200, and 400 µmol/L, was incubated (n = 3) at 37°C with recombinant human UGT1A9 and with pooled microsomes from human liver, kidney, and intestine (0.025 mg protein/mL, preactivated with alamethicin at 20 µg/mL) in Tris‐HCl buffer (0.1 mol/L, pH 7.5), in the presence of 1 mmol/L EDTA, 5 mmol/L MgCl2, with or without 0.5%, 1%, or 2% BSA. […] The filtrates were used for LC‐MS/MS analysis to quantify the formation of ataluren‐O‐1β‐acyl glucuronide. […]
PROPERTY: microsomal CLint
Express your answer as a number followed by its unit.

Exercise: Dear colleague, please send me the reported microsomal CLint for O=C(O)c1cccc(-c2noc(-c3ccccc3F)n2)c1 when you can.
Key: 47.3 µL/min/mg

====

Assay: Ataluren glucuronidation kinetics, human intestinal microsomes
Format: in vitro ADME
Details: human, pooled human intestinal microsomes, pH 7.5, HIM, 0.5% BSA; read-out: CLint,u,UGT
PROPERTY: microsomal CLint
Express your answer as a number followed by its unit.

Exercise: Dear colleague, please send me the reported microsomal CLint for O=C(O)c1cccc(-c2noc(-c3ccccc3F)n2)c1 [ataluren, Ataluren] when you can.
Key: 164 µL/min/mg

====

Target: UGT1A9 (Homo sapiens)
Construct: purchased BD Biosciences; host or cells: baculovirus-infected insect cells
Sequence (O60656 26-530): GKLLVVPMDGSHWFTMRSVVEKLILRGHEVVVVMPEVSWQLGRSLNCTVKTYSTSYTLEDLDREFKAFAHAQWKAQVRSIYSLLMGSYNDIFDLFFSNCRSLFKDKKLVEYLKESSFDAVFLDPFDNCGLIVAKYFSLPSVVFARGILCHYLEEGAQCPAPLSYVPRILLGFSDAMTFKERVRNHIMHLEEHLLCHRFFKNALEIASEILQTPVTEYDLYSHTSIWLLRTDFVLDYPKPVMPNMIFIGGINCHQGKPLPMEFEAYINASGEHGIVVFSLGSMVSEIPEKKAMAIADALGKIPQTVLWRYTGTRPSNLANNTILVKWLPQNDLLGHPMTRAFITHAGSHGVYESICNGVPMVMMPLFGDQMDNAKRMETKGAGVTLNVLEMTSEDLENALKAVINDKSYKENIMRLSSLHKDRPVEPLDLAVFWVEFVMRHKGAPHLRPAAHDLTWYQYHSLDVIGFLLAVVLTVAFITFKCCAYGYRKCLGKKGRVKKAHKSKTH
Experiment: Ataluren glucuronidation kinetics, recombinant human UGT1A9
Assay type: in vitro ADME
Conditions: human, recombinant human UGT1A9 incubation mixture, pH 7.5, UGT1A9, 1% BSA, mean ± SD, n = 3; read-out: fu,inc
PROPERTY: fraction unbound at 15 min
A bare number is all that is needed in reply.

Exercise: Dear colleague, please send me the reported fraction unbound at 15 min for O=C(O)c1cccc(-c2noc(-c3ccccc3F)n2)c1 when you can.
Key: 0.064

====

System: CYP3A4/5
Test: CYP inhibition in pooled human liver microsomes: CYP3A4/5
Format: in vitro ADME
Conditions: pH 7.4, probe testosterone (6β-hydroxylation), Testosterone 6β-hydroxylase, pooled HLM, n=3
PROPERTY: IC50

Exercise: Dear colleague, please send me the reported IC50 for O=C(O)c1cccc(-c2noc(-c3ccccc3F)n2)c1 when you can.
Key: > 400 µM

Just for reference, paper PMC7083565 is where these values come from.
